- target_entity: Human HDAC1 (Homo sapiens, UniProt Q13547)
- Construct: full-length with a C-terminal His-tag and a C-terminal FLAG-tag; His-tag (C); FLAG-tag (C); made in house; host or cells: baculovirus expression system
- Sequence (Q13547 whole entry): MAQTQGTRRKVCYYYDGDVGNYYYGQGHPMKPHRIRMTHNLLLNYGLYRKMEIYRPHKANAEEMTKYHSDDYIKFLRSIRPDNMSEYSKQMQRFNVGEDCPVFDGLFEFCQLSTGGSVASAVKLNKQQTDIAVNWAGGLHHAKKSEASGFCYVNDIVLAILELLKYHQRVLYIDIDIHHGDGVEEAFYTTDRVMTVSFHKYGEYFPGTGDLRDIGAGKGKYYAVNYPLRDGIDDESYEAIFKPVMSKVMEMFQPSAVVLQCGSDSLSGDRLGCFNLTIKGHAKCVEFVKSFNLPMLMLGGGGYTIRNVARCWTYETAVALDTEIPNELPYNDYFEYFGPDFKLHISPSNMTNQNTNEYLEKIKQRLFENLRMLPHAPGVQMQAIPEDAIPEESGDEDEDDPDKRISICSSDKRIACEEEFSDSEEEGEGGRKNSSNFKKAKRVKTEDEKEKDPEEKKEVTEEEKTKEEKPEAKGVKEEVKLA
- method_description: Biochemical HDAC enzymatic assay, HDAC1
- condition_description: Table 2; incubation time 120 min
pIC50: −log10 of the molar value.
Reported values of pIC50 for individual entries
experimental_readout: pIC50

>>> df
                                   compound  experimental_readout  result_modifier  reading
0  O=C(NO)c1ccc(CN2C(=O)c3ccccc3C23CCNCC3)cc1 [Compound Example 10]                 pIC50                =     5.22
1  CN(C)C(=O)N1CCC2(CC1)c1ccccc1C(=O)N2Cc1ccc(C(=O)NO)cc1 [Compound Example 11]                 pIC50                <     5.00
2  O=C(NO)c1ccc(CN2C(=O)C3(CCOC3)c3ccccc32)cc1 (centres unmarked) [Compound Example 9]                 pIC50                =     5.04
3  O=C(NO)c1ccc(CN2C(=O)c3ccccc3C23OCCO3)cc1 [Compound Example 8]                 pIC50                =     5.10
4  O=C(NO)c1ccc(CN2C(=O)c3ccccc3C23CCN(C2CC2)CC3)cc1 [Compound Example 12]                 pIC50                <     5.00

====

- method_description: Mouse plasma PK after IV administration
- Format: in vivo
- condition_description: male, C57 Bl/6J, mouse, plasma, iv, 1 mg/kg, 1 mg/kg IV, individual mice, read-out: MRTINF_obs
experimental_readout: MRT inf

>>> df
                        structure_as_smiles  reading
0  CN1CCC2(CC1)CN(c1ccc(C(=O)Nc3cc(-c4cccs4)ccc3N)cn1)C(=O)O2   1.76 h

====

- method_description: Mouse plasma PK after oral administration
- Format: in vivo
- condition_description: male, C57 Bl/6J, mouse, plasma, po, 7 mg/kg, mouse plasma, 7 mg/kg PO, Average; read-out: AUCINF_obs (converted)
experimental_readout: AUC(0-inf) (ng·h/mL)

>>> df
                        structure_as_smiles  experimental_readout  reading
0  CN1CCC2(CC1)CN(c1ccc(C(=O)Nc3cc(-c4cccs4)ccc3N)cn1)C(=O)O2            AUC(0-inf)     7860

====

- target_entity: Human HDAC8 (Homo sapiens, UniProt Q9BY41)
- Construct: full-length with a C-terminal His tag, MW=46.4 kDa; His tag (C); made in house; host or cells: baculovirus expression system
- Sequence (Q9BY41 whole entry): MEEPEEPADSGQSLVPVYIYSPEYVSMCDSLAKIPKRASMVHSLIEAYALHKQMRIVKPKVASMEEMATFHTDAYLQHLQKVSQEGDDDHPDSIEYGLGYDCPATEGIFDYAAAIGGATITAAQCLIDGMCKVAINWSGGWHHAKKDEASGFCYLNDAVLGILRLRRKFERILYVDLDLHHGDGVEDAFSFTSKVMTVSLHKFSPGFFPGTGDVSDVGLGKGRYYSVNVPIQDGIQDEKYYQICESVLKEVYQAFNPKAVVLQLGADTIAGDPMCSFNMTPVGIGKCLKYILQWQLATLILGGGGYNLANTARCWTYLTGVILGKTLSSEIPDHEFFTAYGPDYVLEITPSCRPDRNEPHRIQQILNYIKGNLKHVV
- method_description: Biochemical HDAC enzymatic assay, HDAC8
- condition_description: Table 1; incubation time 10 min
pIC50: −log10 of the molar value.
experimental_readout: pIC50

                                   compound                             target_entity  reading
0  Nc1ccc(-c2cccs2)cc1NC(=O)c1ccc(CN2C(=O)CCC23CCNCC3)cc1 [Example 2]  Human HDAC8 (Homo sapiens, UniProt Q9BY41)   < 4.70
1  Nc1ccc(-c2cccs2)cc1NC(=O)c1ccc(N2CC3(CCNCC3)CCC2=O)nc1 [Example 6]  Human HDAC8 (Homo sapiens, UniProt Q9BY41)   < 4.70
2  Nc1cc(F)ccc1NC(=O)c1ccc(CN2C(=O)CCCC23CNC3)cc1 [Example 3]  Human HDAC8 (Homo sapiens, UniProt Q9BY41)   < 5.00
3  Nc1ccc(-c2ccc(F)cc2)cc1NC(=O)c1ccc(N2CC3(CCOCC3)OC2=O)nc1 [Example 5]  Human HDAC8 (Homo sapiens, UniProt Q9BY41)   < 4.70
4  Nc1ccc(-c2cccs2)cc1NC(=O)c1ccc(CN2C(=O)CCCC23CNC3)cc1 [Example 1]  Human HDAC8 (Homo sapiens, UniProt Q9BY41)   < 4.70
5  CN1CCC2(CC1)CN(c1ccc(C(=O)Nc3cc(-c4cccs4)ccc3N)cn1)C(=O)O2 [Example 4]  Human HDAC8 (Homo sapiens, UniProt Q9BY41)   < 4.70

// provenance: patent US11155550B2
